assayed-system: D(1B) dopamine receptor (Homo sapiens, UniProt P21918)
Sequence (P21918 whole entry): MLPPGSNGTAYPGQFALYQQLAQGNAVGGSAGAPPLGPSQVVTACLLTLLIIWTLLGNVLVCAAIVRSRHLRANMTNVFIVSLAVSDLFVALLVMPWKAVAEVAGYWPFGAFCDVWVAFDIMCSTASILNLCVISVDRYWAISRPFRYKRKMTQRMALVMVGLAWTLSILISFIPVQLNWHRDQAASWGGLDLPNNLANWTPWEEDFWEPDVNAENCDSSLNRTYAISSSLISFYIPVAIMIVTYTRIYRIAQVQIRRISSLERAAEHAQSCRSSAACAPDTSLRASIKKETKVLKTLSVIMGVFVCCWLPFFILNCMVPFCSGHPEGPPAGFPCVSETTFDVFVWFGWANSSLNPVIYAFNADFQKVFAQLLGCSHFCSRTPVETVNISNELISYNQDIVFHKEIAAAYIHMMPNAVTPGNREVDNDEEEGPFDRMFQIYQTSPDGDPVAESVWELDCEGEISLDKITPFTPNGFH
assay-procedure: Displacement of [3H]-SCH23390 from human D5 receptor expressed in HEK293 cell membrane at 10 uM by competitive inhibition based analysis
Assay type: cell membranes
assay-setup: filed as antagonist
readout-label: inhibition (%)
Number only, in %; omit the unit.

Which value of inhibition has been reported for "Fc1ccc(COC2CCN(Cc3cc4ccc(Cl)cc4[nH]3)CC2)cc1F" in the records?
64

Which value of inhibition has been reported for "Fc1cc(COC2CCN(Cc3cn4ccccc4n3)CC2)ccc1Cl" in the records?
57

Which value of inhibition has been reported for "Cc1cc(CO[C@H]2CCCN(c3ccc(Cl)cc3)C2)ccc1F" in the records?
66

Which value of inhibition has been reported for "Fc1cc(COC2CCN(Cc3cc4ccc(Cl)cc4[nH]3)CC2)ccc1Cl" in the records?
65

---

assayed-system: UniProtKB P35462
Sequence (P35462 whole entry): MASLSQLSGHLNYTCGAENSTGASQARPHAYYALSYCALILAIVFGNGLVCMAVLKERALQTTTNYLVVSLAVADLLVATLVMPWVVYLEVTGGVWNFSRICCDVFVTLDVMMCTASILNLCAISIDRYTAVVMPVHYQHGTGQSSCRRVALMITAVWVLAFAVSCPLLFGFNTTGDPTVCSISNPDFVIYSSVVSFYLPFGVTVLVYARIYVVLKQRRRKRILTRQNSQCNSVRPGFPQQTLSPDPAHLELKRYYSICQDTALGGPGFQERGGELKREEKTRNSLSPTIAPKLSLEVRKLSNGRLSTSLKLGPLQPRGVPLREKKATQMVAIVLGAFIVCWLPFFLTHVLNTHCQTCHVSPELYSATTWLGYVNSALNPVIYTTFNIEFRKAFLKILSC
assay-procedure: Displacement of [3H]N-methylspiperone from human D3 receptor expressed in HEK293 cell membrane at 10 uM by competitive inhibition based analysis
Assay type: cell membranes
assay-setup: filed as antagonist
readout-label: inhibition (%)
Number only, in %; omit the unit.

Item: "Cc1c(Cl)cccc1NC(=O)CN1CCC(OCc2ccc(Cl)c(F)c2)CC1" Test system: UniProtKB P35462 Read-out: inhibition Value: ?
76.2

Item: "FC(F)(F)c1cccc(COC2CCN(Cc3ccc4[nH]cnc4c3)CC2)c1" Test system: UniProtKB P35462 Read-out: inhibition Value: ?
83

Item: "Fc1cc(COC2CCN(Cc3cc4ccc(Cl)cc4[nH]3)CC2)ccc1Cl" Test system: UniProtKB P35462 Read-out: inhibition Value: ?
76

Item: "Cc1c(Cl)cccc1NC(=O)CN1CCC(OCc2cccc(C(F)(F)F)c2)CC1" Test system: UniProtKB P35462 Read-out: inhibition Value: ?
84

Item: "Cc1c(Cl)cccc1NC(=O)CN1CCC(OCc2ccc(F)c(F)c2)CC1" Test system: UniProtKB P35462 Read-out: inhibition Value: ?
67

---

Please respond with reported AUC for every item in the list.
assay-procedure: AUC in rat at 0.25 mg/kg, iv measured for 24 hrs
Assay type: ADME, organism-based
Design: time 24 hrs, dose 0.25 mg/kg, route iv
assay-setup: in vivo
Number only, in ng·h/mL; omit the unit.

Which value of AUC has been reported for "Fc1cc(COC2CCN(Cc3cn4ccccc4n3)CC2)ccc1Cl" in the records?
125

Which value of AUC has been reported for "Cn1cnc2cc(CN3CCC(OCc4cccc(C(F)(F)F)c4)CC3)ccc21" in the records?
149

Which value of AUC has been reported for "Fc1ccc(COC2CCN(Cc3ccc4[nH]cnc4c3)CC2)cc1F" in the records?
65.6

Which value of AUC has been reported for "Cn1ncc2cc(CN3CCC(OCc4ccc(F)c(F)c4)CC3)ccc21" in the records?
112

Which value of AUC has been reported for "Fc1cc(COC2CCN(Cc3ccc4[nH]cnc4c3)CC2)ccc1Cl" in the records?
79.9

Which value of AUC has been reported for "Cc1c(Cl)cccc1NC(=O)CN1CCC(OCc2ccc(F)c(F)c2)CC1" in the records?
747

Which value of AUC has been reported for "Fc1ccc(COC2CCN(Cc3cc4ccc(Cl)cc4[nH]3)CC2)cc1F" in the records?
126

Which value of AUC has been reported for "Fc1ccc(COC2CCN(Cc3cn4ccccc4n3)CC2)cc1F" in the records?
142

---

assay-procedure: Plasma concentration in rat at 0.25 mg/kg, iv measured on day 2 at 0.25 hrs post-dose
Format: ADME, organism-based
assay-setup: time 2 day
Please respond with reported concentration at 48 h for every item in the list.
Number only, in ng/mL; omit the unit.

Which value of concentration at 48 h has been reported for "Fc1cc(COC2CCN(Cc3cn4ccccc4n3)CC2)ccc1Cl" in the records?
29.9

Which value of concentration at 48 h has been reported for "Fc1ccc(COC2CCN(Cc3ccc4[nH]cnc4c3)CC2)cc1F" in the records?
7

Which value of concentration at 48 h has been reported for "Fc1ccc(COC2CCN(Cc3cn4ccccc4n3)CC2)cc1F" in the records?
34.9

Which value of concentration at 48 h has been reported for "Cc1c(Cl)cccc1NC(=O)CN1CCC(OCc2ccc(F)c(F)c2)CC1" in the records?
45.8

Which value of concentration at 48 h has been reported for "Fc1cc(COC2CCN(Cc3ccc4[nH]cnc4c3)CC2)ccc1Cl" in the records?
14.1

Which value of concentration at 48 h has been reported for "Fc1ccc(COC2CCN(Cc3cc4ccc(Cl)cc4[nH]3)CC2)cc1F" in the records?
19.4

Which value of concentration at 48 h has been reported for "Cn1ncc2cc(CN3CCC(OCc4ccc(F)c(F)c4)CC3)ccc21" in the records?
30.6

Which value of concentration at 48 h has been reported for "Cn1cnc2cc(CN3CCC(OCc4cccc(C(F)(F)F)c4)CC3)ccc21" in the records?
30.1

---

assay-procedure: Protein binding in mouse plasma assessed as unbound fraction
Format: ADME, cell-free
readout-label: Fu (%)
Number only, in %; omit the unit.

Which value of Fu has been reported for "Cc1nc(CN2CCC(OCc3ccc(Cl)c(F)c3)CC2)c2ccccn12" in the records?
13.2

Which value of Fu has been reported for "Fc1ccc(COC2CCN(Cc3cn4ccccc4n3)CC2)cc1F" in the records?
42.8

Which value of Fu has been reported for "Fc1cccc(COC2CCN(Cc3ncn4ccccc34)CC2)c1" in the records?
40.5

Which value of Fu has been reported for "FC(F)(F)c1cccc(COC2CCN(Cc3cn4ccccc4n3)CC2)c1" in the records?
17.1

Which value of Fu has been reported for "Fc1ccc(COC2CCN(Cc3ccc4[nH]cnc4c3)CC2)cc1F" in the records?
40.1

Which value of Fu has been reported for "Cn1cnc2cc(CN3CCC(OCc4cccc(C(F)(F)F)c4)CC3)ccc21" in the records?
5.7

Which value of Fu has been reported for "Fc1ccc(COC2CCN(Cc3cc4ccc(Cl)cc4[nH]3)CC2)cc1F" in the records?
0.4

Which value of Fu has been reported for "Fc1ccc(CO[C@H]2CCCN(Cc3cn4ccccc4n3)C2)cc1F" in the records?
8.7

Which value of Fu has been reported for "Cc1nc(CN2CCC(OCc3cccc(C(F)(F)F)c3)CC2)c2ccccn12" in the records?
3.6

Which value of Fu has been reported for "Cn1ncc2cc(CN3CCC(OCc4ccc(F)c(F)c4)CC3)ccc21" in the records?
16.6

Which value of Fu has been reported for "Cn1ncc2cc(CN3CCC(OCc4cccc(C(F)(F)F)c4)CC3)ccc21" in the records?
5.7

---

assayed-system: D(4) dopamine receptor (Homo sapiens, UniProt P21917)
Sequence (P21917 whole entry): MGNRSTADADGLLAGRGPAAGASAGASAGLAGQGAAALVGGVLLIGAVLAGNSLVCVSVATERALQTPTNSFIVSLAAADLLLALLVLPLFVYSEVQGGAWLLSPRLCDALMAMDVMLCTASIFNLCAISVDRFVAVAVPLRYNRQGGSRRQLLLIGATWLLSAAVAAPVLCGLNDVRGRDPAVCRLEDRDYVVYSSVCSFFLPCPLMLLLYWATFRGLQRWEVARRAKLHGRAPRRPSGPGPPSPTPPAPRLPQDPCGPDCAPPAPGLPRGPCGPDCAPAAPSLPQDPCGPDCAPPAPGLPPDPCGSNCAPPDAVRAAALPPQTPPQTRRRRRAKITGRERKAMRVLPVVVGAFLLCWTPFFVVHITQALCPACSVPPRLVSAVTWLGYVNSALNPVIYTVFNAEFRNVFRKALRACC
assay-procedure: Displacement of [3H]N-methylspiperone from human D4 receptor expressed in HEK293 cell membrane by competitive inhibition based analysis
readout-label: pIC50
Notebook: values listed as pIC50 are -log10 of the concentration (mol/L).

Which value of pIC50 has been reported for "COc1ccc(CN2CCC[C@H](OCc3ccc(C)cc3)C2)cc1F" in the records?
6.62

Which value of pIC50 has been reported for "COc1ccc(CN2CCC[C@H](OCc3ccccc3C)C2)cc1F" in the records?
6.46

Which value of pIC50 has been reported for "Fc1cccc(COC2CCN(Cc3ncn4ccccc34)CC2)c1" in the records?
6.78

Which value of pIC50 has been reported for "Fc1cc(COC2CCN(Cc3ccc4[nH]cnc4c3)CC2)ccc1Cl" in the records?
5.82

Which value of pIC50 has been reported for "Cc1ccccc1CO[C@H]1CCCN(Cc2cn3ccccc3n2)C1" in the records?
5.74

Which value of pIC50 has been reported for "Cn1ncc2cc(CN3CCC(OCc4ccc(Cl)c(F)c4)CC3)ccc21" in the records?
6.77

Which value of pIC50 has been reported for "Cc1cc(CO[C@H]2CCCN(Cc3ncn4ccccc34)C2)ccc1F" in the records?
6.79

Which value of pIC50 has been reported for "FC(F)(F)c1cccc(COC2CCN(Cc3ccc4[nH]ncc4c3)CC2)c1" in the records?
6.07

Which value of pIC50 has been reported for "Fc1ccc(COC2CCN(Cc3cn4ccccc4n3)CC2)cc1F" in the records?
6.47

Which value of pIC50 has been reported for "Cc1ccc(CN2CCC[C@H](OCc3ccc(F)c(C)c3)C2)cc1" in the records?
6.78

Which value of pIC50 has been reported for "Fc1cccc(CO[C@H]2CCCN(Cc3ncn4ccccc34)C2)c1" in the records?
5.87

Which value of pIC50 has been reported for "Cn1cnc2cc(CN3CCC(OCc4ccc(F)c(F)c4)CC3)ccc21" in the records?
5.85

Which value of pIC50 has been reported for "Fc1cc(COC2CCN(Cc3cc4ccc(Cl)cc4[nH]3)CC2)ccc1Cl" in the records?
6.49

Which value of pIC50 has been reported for "Cc1cccc(CO[C@H]2CCCN(Cc3cc4ccc(Cl)cc4[nH]3)C2)n1" in the records?
6.50

Which value of pIC50 has been reported for "Cc1cc(NC(=O)CN2CCC(OCc3ccc(F)c(F)c3)CC2)ccc1F" in the records?
6.92

Which value of pIC50 has been reported for "Fc1ccc(COC2CCN(Cc3ccc4[nH]cnc4c3)CC2)cc1F" in the records?
5.37

Which value of pIC50 has been reported for "Cc1nc(CN2CCC(OCc3cccc(C(F)(F)F)c3)CC2)c2ccccn12" in the records?
6.52

Which value of pIC50 has been reported for "Fc1ccc(COC2CCN(Cc3ncc4ccccn34)CC2)cc1F" in the records?
6.67

Which value of pIC50 has been reported for "Cc1c(Cl)cccc1NC(=O)CN1CCC(OCc2ccc(Cl)c(F)c2)CC1" in the records?
6.36

Which value of pIC50 has been reported for "COc1ccc(CN2CCC[C@H](OCc3ccc(F)c(C)c3)C2)cc1F" in the records?
6.87

Which value of pIC50 has been reported for "Cc1ccc(CO[C@H]2CCCN(Cc3ccc(C#N)cc3)C2)cc1" in the records?
5.99

Which value of pIC50 has been reported for "COc1ccc(CN2CCC[C@@H](OCc3ccc(F)c(C)c3)C2)cc1F" in the records?
5.70

Which value of pIC50 has been reported for "Fc1cc(COC2CCN(Cc3cn4ccccc4n3)CC2)ccc1Cl" in the records?
6.87

Which value of pIC50 has been reported for "Fc1ccc(COC2CCN(Cc3ccc4[nH]ncc4c3)CC2)cc1F" in the records?
5.76

Which value of pIC50 has been reported for "Cc1nc(CN2CCC(OCc3ccc(Cl)c(F)c3)CC2)c2ccccn12" in the records?
7.02

Which value of pIC50 has been reported for "COc1ccc(CN2CCO[C@H](COc3ccccc3)C2)cc1F" in the records?
8.30

Which value of pIC50 has been reported for "Cn1ncc2cc(CN3CCC(OCc4cccc(C(F)(F)F)c4)CC3)ccc21" in the records?
6.70

Where these numbers come from: ChEMBL document CHEMBL5143585
